# system.under.test: PDE5A3 (Homo sapiens, UniProt O76074)
# measurement.protocol: In vitro PDE selectivity assay (SPA), PDE5A3
# Format: biochemical
# conditions.used: hPDE5A3; read-out: PDE 5A3 (expressed as pIC50) (converted)
measured.property: IC50 (µM)

a. CO[C@@H](C)Cn1cc(-c2c(C)nc3c(N4CCOCC4)ccnn23)cn1 [compound 131]
b. COCCn1cc(-c2c(C)nc3c(N4CCOCC4)cc(C4CC4)nn23)cn1 [compound 125]
Prompt line: Between a and b , whose measured IC50 reads higher? Could you answer with the label of the item you picked?
Response line: a
(a: 8.51 µM, b: 1.26 µM)

1. COC(C)(C)Cn1cc(-c2c(C)nc3c(N4CCOCC4)ccnn23)cn1 [compound 37]
2. COC(C)(C)Cn1cc(-c2c(C3CC3)nc3c(-c4ccncc4)ccnn23)cn1 [compound 143]
3. Cc1nc2c(-c3ccncc3)ccnn2c1-c1cnn(CC(F)(F)F)c1 [compound 135]
Prompt line: Hey, quick one: sort these by IC50, largest value first please. List labels; respect the requested ordering.
Response line: 1, 3, 2

I. COC(C)(C)Cc1ccc(-c2c(C)nc3c(N4CCOCC4)ccnn23)cn1 [compound 3]
II. COC(C)(C)CCc1ccc(-c2c(C)nc3c(N4CCOCC4)ccnn23)cn1 [compound 29]
III. Cc1nc2c(N3CCOCC3)cc(Cl)nn2c1-c1cnn(CC(F)(F)F)c1 [compound 146]
Prompt line: Hey, quick one: sort these by IC50, largest value first please. List labels; respect the requested ordering.
Response line: I, II, III
